Assay: Toxicokinetics, 14-day intranasal study in rats (Study 700041)
Format: in vivo
Conditions: male, Sprague Dawley, rat, plasma, inhaled or intranasal, 75 mg/kg/day, Day 1, Male, read-out: AUC0-Tlast [SE]
measured-attribute: AUC(0-t)

Task item: What measured AUC(0-t) goes with COc1ccc2[nH]cc(CCN(C)C)c2c1 ?
Reply: 1030 ng·h/mL

* * *

Assay: Toxicokinetics, 14-day intranasal study in dogs (Study 62959)
Assay type: in vivo
Details: male, beagle, dog, plasma, inhaled or intranasal, 0.4 mg/kg/day, Day 14, Male, read-out: t1/2 (converted)
measured-attribute: half-life (min)
Write the number in min without appending the unit.

Task item: What measured half-life goes with COc1ccc2[nH]cc(CCN(C)C)c2c1 [BPL-5MEO, 5-methoxy-N,N-dimethyltryptamine] ?
Reply: 25.7
